Form field: cytotoxicity at 10 µM (one value per entry).
# protocol-description: Toxicity liver stage against HepG2, at 10uM
# Assay type: cell-based
# Design: test concentration 10 uM, cell line HepG2-A16-CD81EGFP
# condition-info: human, HepG2-A16-CD81EGFP cells; read-out: INHIBITION
metric-name: cytotoxicity at 10 µM (%)

1. Cc1cc(C)nc(CN(C)c2nc(C3CCCC3)nc3c2cnn3C)c1 | 12.4
2. CCOC(=O)[C@@H]1[C@@H](OC)C(=O)N(C)C12CCN(C(=O)C(CC)CC)CC2 | -0.00815
3. COc1ccccc1N1CCN(C(=O)CCCS(N)(=O)=O)C(C)C1 (configuration not stated) | 6.15
4. OCC1CCCCN1CCn1ccnc1-c1ccc2c(c1)OCCO2 (configuration not stated) | -3.65
5. O=C1CCN(C(=O)C2(c3ccc(F)cc3)CCOCC2)CCN1 | -4.97
6. CCc1oc(C(=O)N2CCC(N(CC)C(C)=O)C2)cc1CN(CC)CC (configuration not stated) | 8.31
7. CN(C)C(=O)[C@H]1C[C@H]2CN(S(=O)(=O)c3ccccc3)C[C@@H]1O2 | -83.1

* * *

# protocol-description: Toxicity liver stage against HepG2, at 10uM
# Format: cell-based
# Parameters: test concentration 10 uM, cell line HepG2-A16-CD81EGFP
# condition-info: human, HepG2-A16-CD81EGFP cells; read-out: INHIBITION
Form field: cytotoxicity at 10 µM (one value per entry).
metric-name: cytotoxicity at 10 µM (%)

1) O=C(c1ccc2nncn2c1)N1CCCCC1Cn1cccn1 (stereo not drawn) | -3.11
2) COCCc1noc(CN2CCOC(CN(C)C)C2)n1 (stereo not drawn) | -1.04
3) Cc1cnc(CN2CCN(c3nc(C)cs3)C(C)C2)cn1 (stereo not drawn) | 2.74
4) CC(C)c1cc(C(=O)N2CCCC(Cn3cc(CO)nn3)C2)on1 (stereo not drawn) | -6.27
5) Cc1nc(N2CCOCC2)nc2c1CCN(C(=O)C1(C#N)CC1)CC2 | -117
6) C[C@@H]1CN(c2nc(N)nc3c2CCC3)CC[C@@]1(O)C1CCC1 | 36.9
7) CCOCc1nc(N2CCCC2)sc1C(=O)NCc1ccco1 | -1.89
8) CCS(=O)(=O)c1ccccc1N1CCC(NC(C)=O)CC1 | -5.31
9) Cc1cnc(CNc2ccccc2CN(C)C(=O)c2cccs2)o1 | -3.83
10) CC(C)CN1CCCC1c1ccc(C(=O)Nc2cccnc2)s1 (stereo not drawn) | -6.79
11) COc1ccc2cc(CN(C)CCc3cn[nH]c3)c(=O)[nH]c2c1 | 0.363
12) O=C(c1ccncc1)N1CCCn2nnc(Cn3cccn3)c2C1 | 6.01
13) COc1ccc(OCc2nccc(-c3cc(C(=O)O)ccn3)n2)cc1 | -4.81
14) CC(=O)N(C)c1nc(CN2CCN(Cc3nccn3C)CC2)cs1 | 8.82
15) CC(CNC(=O)c1ccc(Cl)cc1I)N1CCCC1 (stereo not drawn) | -5.69
16) NCC1CN(c2nc(-c3cccnc3)nc3c2CCNCC3)CCO1 (stereo not drawn) | -17.6
17) Cc1cccc(NC(=O)c2ccc(-n3cncn3)nn2)n1 | -0.895
18) CC1CCN(C(=O)[C@H]2C[C@@H]3CCN(CC4CCOCC4)C[C@@H]3O2)CC1 | 9.85
